Reported Wheat plant response rating values follow for various compounds
Tested on: wheat
Test: Test B pre/postemergence wheat
Format: in vivo, Triticum aestivum
Conditions: Preemergence, Rate 500 g/ha; scale of 0 to 10 where 0 is no effect and 10 is complete control
reported.endpoint: Wheat plant response rating

In [3]: df
Out[3]:
                                   compound            reported_endpoint  value
0  CC1CC1n1c(=O)on(C(=O)N(c2ccc(F)cc2)C(C)C)c1=O (stereo not drawn) [Compound 371]  Wheat plant response rating      4
1  CC1CC1n1c(=O)on(C(=O)N(c2ccccc2)C(C)C)c1=O (stereo not drawn) [Compound 370]  Wheat plant response rating      7
2  CC(C)N(C(=O)n1oc(=O)n(CC2=NCCCO2)c1=O)c1ccccc1 [Compound 494]  Wheat plant response rating      0
3  CC(C)N(C(=O)n1oc(=O)n(CC2CCCO2)c1=O)c1ccc(F)cc1 (stereo not drawn) [Compound 343]  Wheat plant response rating      5
4  CC(C)N(C(=O)n1oc(=O)n(C2CC3CCC2C3)c1=O)c1ccc(F)cc1 (stereo not drawn) [Compound 327]  Wheat plant response rating      4
5  CCc1cccc(CC)c1-n1c(=O)on(C(=O)N(c2ccc(F)cc2)C(C)C)c1=O [Compound 304]  Wheat plant response rating      0

Numbers sourced from patent US6737383B1.
